# assayInfo: Half life in dog plasma at 1 mg/kg, iv measured up to 24 hrs by LC-MS/MS analysis
# Assay type: ADME, organism-based, Canis lupus familiaris
propertyMeasured: half-life (h)
Output spec: scalar in h, unitless text.

Inquiry: Recorded half-life of CC(C)(C)c1cc(NC(=O)Nc2ccc(C#Cc3ccc(OCCCN4CCOCC4)cc3)cc2)no1 , please.
Reply text: 6.28

* * *

# assayInfo: Cmax in NOD/SCID mouse tumor xenografted with human MV4-11 cells at 0.5 mg/kg, po measured up to 24 hrs by LC-MS/MS analysis
# Type: ADME, organism-based, Neoplasm
propertyMeasured: Cmax (ng/mL)
Output spec: scalar in ng/mL, unitless text.

Inquiry: Recorded Cmax of CC(C)(C)c1cc(NC(=O)Nc2ccc(C#Cc3ccc(OCCCN4CCOCC4)cc3)cc2)no1 , please.
Reply text: 23.3

* * *

# measuredTarget: Mast/stem cell growth factor receptor Kit (Homo sapiens, UniProt P10721, Y823D)
# Sequence (P10721 26-976 Y823D limits assumed): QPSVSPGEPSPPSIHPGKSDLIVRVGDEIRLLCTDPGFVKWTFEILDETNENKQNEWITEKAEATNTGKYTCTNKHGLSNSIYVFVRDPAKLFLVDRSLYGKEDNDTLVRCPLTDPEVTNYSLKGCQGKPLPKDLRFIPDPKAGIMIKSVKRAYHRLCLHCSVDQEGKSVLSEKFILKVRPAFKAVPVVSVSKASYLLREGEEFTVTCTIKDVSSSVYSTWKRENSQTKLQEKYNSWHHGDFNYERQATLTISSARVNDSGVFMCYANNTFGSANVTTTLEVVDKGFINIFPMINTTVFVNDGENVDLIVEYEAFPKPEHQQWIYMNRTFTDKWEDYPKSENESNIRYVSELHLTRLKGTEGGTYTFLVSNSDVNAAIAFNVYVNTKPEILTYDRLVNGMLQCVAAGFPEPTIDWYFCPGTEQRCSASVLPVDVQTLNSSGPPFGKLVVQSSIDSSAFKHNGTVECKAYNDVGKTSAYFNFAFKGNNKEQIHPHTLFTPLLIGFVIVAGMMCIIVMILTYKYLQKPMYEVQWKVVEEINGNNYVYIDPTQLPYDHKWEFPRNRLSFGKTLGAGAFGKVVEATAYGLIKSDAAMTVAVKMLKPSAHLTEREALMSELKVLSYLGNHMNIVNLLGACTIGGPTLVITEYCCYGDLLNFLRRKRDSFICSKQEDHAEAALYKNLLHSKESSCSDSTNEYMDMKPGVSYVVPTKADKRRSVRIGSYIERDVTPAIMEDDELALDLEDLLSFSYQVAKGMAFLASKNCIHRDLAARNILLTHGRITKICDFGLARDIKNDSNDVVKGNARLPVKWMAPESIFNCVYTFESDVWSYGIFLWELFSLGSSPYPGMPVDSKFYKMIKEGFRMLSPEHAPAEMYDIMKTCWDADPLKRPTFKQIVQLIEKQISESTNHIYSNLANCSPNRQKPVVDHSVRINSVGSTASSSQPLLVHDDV
# assayInfo: Inhibition of human KIT Y823D mutant by biochemical kinase binding assay
propertyMeasured: pIC50
Convention used: pIC50 is expressed as -log10 of the molar concentration.

Inquiry: Recorded pIC50 of CC(C)(C)c1cc(NC(=O)Nc2ccc(C#Cc3ccc(OCCCN4CCOCC4)cc3)cc2)no1 , please.
Reply text: 6.55

* * *

# measuredTarget: Cytochrome P450 2D6 (Homo sapiens)
# Sequence (P10635 whole entry): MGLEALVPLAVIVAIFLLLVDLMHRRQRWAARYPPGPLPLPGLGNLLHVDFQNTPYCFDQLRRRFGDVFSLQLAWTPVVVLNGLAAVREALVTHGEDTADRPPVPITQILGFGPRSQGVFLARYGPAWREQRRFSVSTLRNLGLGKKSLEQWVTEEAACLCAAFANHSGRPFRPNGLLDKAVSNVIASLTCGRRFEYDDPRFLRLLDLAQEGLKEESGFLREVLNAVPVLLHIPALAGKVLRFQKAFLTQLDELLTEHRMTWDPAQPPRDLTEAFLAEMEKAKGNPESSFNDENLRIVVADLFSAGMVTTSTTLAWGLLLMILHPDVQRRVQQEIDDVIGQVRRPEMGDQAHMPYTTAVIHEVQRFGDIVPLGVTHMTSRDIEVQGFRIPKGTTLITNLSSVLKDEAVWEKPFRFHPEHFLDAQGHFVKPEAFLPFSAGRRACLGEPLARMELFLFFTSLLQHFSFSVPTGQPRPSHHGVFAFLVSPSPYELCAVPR
propertyMeasured: IC50

Inquiry: Given the entry CC(C)(C)c1cc(NC(=O)Nc2ccc(C#Cc3ccc(OCCCN4CCOCC4)cc3)cc2)no1 , what IC50 was observed with Cytochrome P450 2D6 (Homo sapiens)?
Reply text: > 33.3 µM

* * *

# assayInfo: AUC last in mouse plasma at 10 mg/kg, po measured up to 24 hrs by LC-MS/MS analysis
# Type: ADME, organism-based
propertyMeasured: AUC(0-t) at 24 h (ng·h/mL)
Output spec: scalar in ng·h/mL, unitless text.

Inquiry: Recorded AUC(0-t) at 24 h of CC(C)(C)c1cc(NC(=O)Nc2ccc(C#Cc3ccc(OCCCN4CCOCC4)cc3)cc2)no1 , please.
Reply text: 4380

* * *

# assayInfo: Cmax in mouse plasma at 10 mg/kg, po measured up to 24 hrs by LC-MS/MS analysis
# Type: ADME, organism-based
propertyMeasured: Cmax (ng/mL)
Output spec: scalar in ng/mL, unitless text.

Inquiry: Recorded Cmax of CC(C)(C)c1cc(NC(=O)Nc2ccc(C#Cc3ccc(OCCCN4CCOCC4)cc3)cc2)no1 , please.
Reply text: 1660

* * *

# assayInfo: Volume of distribution at steady state in dog plasma at 1 mg/kg, iv measured up to 24 hrs by LC-MS/MS analysis
# Assay type: ADME, organism-based, Canis lupus familiaris
# measurementSetup: read-out: Vdss
propertyMeasured: Vd (L/kg)
Output spec: scalar in L/kg, unitless text.

Inquiry: Recorded Vd of CC(C)(C)c1cc(NC(=O)Nc2ccc(C#Cc3ccc(OCCCN4CCOCC4)cc3)cc2)no1 , please.
Reply text: 5.08

* * *

# measuredTarget: Cytochrome P450 2B6 (Homo sapiens)
# Sequence (P20813 whole entry): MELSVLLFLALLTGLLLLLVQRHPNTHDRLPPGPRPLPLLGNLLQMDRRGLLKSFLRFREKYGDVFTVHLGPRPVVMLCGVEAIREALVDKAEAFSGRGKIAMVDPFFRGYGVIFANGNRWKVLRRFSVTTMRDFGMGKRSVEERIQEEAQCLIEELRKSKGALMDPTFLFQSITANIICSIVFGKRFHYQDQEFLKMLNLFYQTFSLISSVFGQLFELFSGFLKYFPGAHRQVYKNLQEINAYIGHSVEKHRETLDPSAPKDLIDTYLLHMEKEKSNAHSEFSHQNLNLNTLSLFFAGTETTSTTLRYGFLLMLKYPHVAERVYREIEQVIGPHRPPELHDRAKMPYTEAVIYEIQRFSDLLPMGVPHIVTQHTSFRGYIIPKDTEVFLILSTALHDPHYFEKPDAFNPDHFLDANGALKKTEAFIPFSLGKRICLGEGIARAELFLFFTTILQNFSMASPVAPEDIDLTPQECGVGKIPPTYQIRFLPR
propertyMeasured: IC50

Inquiry: Recorded IC50 of CC(C)(C)c1cc(NC(=O)Nc2ccc(C#Cc3ccc(OCCCN4CCOCC4)cc3)cc2)no1 , please.
Reply text: > 33.3 µM

* * *

# measuredTarget: hERG (KCNH2) (Homo sapiens)
# Sequence (Q12809 whole entry): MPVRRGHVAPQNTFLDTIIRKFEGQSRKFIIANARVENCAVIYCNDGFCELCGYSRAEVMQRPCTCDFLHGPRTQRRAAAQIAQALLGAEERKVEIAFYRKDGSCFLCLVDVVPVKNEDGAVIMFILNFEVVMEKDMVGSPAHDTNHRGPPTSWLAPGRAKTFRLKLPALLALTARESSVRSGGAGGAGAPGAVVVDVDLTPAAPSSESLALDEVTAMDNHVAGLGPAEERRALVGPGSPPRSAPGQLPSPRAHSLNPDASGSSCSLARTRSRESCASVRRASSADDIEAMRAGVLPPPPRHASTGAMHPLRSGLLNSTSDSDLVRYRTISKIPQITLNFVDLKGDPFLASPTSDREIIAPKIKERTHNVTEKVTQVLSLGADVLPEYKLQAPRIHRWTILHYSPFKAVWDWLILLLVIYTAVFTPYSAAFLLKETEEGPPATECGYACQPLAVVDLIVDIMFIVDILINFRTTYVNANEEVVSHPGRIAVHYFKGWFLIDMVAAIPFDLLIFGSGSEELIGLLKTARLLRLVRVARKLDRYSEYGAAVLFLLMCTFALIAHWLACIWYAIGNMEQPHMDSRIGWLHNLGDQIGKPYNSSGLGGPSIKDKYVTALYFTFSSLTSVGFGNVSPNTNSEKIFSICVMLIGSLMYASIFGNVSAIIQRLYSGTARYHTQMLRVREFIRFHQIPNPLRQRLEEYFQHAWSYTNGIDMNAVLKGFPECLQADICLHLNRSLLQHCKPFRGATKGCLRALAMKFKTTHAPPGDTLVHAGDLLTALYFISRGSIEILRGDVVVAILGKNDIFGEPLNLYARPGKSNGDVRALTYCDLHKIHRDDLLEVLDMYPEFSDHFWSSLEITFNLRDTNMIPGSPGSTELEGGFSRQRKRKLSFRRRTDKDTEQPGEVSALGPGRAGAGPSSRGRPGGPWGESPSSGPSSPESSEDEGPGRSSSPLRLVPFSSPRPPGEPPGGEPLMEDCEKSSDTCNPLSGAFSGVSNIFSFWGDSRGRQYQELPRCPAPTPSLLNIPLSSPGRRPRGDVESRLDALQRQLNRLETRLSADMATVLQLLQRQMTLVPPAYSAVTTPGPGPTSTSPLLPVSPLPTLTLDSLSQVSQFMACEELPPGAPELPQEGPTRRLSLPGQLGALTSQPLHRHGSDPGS
# assayInfo: Inhibition of human ERG expressed in CHO cells at 30 uM by manual patch clamp assay relative to control
# Type: toxicity, cell-based
# measurementSetup: CHO cells expressing human ERG
Measured inhibition at 30 µM of individual entries
Please report the result as a number followed by the unit.

Inquiry: Recorded inhibition at 30 µM of CC(C)(C)c1cc(NC(=O)Nc2ccc(C#Cc3ccc(OCCCN4CCOCC4)cc3F)cc2)no1 , please.
Reply text: 36.3%

Inquiry: Recorded inhibition at 30 µM of CC(C)(C)c1cc(NC(=O)Nc2ccc(C#Cc3ccc(OCCCN4CCOCC4)cc3)cc2)no1 , please.
Reply text: 22.8%

* * *

# assayInfo: Half life in dog plasma at 5 mg/kg, po measured up to 24 hrs by LC-MS/MS analysis
# Type: ADME, organism-based, Canis lupus familiaris
propertyMeasured: half-life (min)
Output spec: scalar in min, unitless text.

Inquiry: Recorded half-life of CC(C)(C)c1cc(NC(=O)Nc2ccc(C#Cc3ccc(OCCCN4CCOCC4)cc3)cc2)no1 , please.
Reply text: 445

* * *

# assayInfo: Tmax in dog plasma at 5 mg/kg, po measured up to 24 hrs by LC-MS/MS analysis
# Format: ADME, organism-based, Canis lupus familiaris
propertyMeasured: Tmax (h)
Output spec: scalar in h, unitless text.

Inquiry: Recorded Tmax of CC(C)(C)c1cc(NC(=O)Nc2ccc(C#Cc3ccc(OCCCN4CCOCC4)cc3)cc2)no1 , please.
Reply text: 1.67

* * *

# assayInfo: Half life in mouse plasma at 2 mg/kg, iv measured up to 24 hrs by LC-MS/MS analysis
# Format: ADME, organism-based
propertyMeasured: half-life (h)
Output spec: scalar in h, unitless text.

Inquiry: Recorded half-life of CC(C)(C)c1cc(NC(=O)Nc2ccc(C#Cc3ccc(OCCCN4CCOCC4)cc3)cc2)no1 , please.
Reply text: 1.17

* * *

# assayInfo: AUC (0 to t) in NOD/SCID mouse tumor xenografted with human MV4-11 cells at 0.5 mg/kg, po measured up to 24 hrs by LC-MS/MS analysis
# Assay type: ADME, organism-based, Neoplasm
propertyMeasured: AUC(0-t) at 24 h (ng·h/mL)
Output spec: scalar in ng·h/mL, unitless text.

Inquiry: Recorded AUC(0-t) at 24 h of CC(C)(C)c1cc(NC(=O)Nc2ccc(C#Cc3ccc(OCCCN4CCOCC4)cc3)cc2)no1 , please.
Reply text: 380

* * *

# Test system: BaF3
# assayInfo: Antiproliferative activity against mouse BaF3 cells harbouring FLT3-ITD assessed as inhibition of cell growth incubated for 72 hrs by celltiter-glo luminescent cell viability assay
# Assay type: functional, cell-based
# measurementSetup: BaF3, 72 h
propertyMeasured: pIC50
Convention used: pIC50 is expressed as -log10 of the molar concentration.

{"recordSmiles": "CC(C)(C)c1cc(NC(=O)Nc2ccc(C#Cc3ccc(OCCCN4CCOCC4)cc3)cc2)no1", "pIC50": 9.05}

Let us examine a further case.
Inquiry: Recorded pIC50 of CC(C)(C)c1cc(NC(=O)Nc2ccc(-c3cn4c(n3)sc3cc(OCCN5CCOCC5)ccc34)cc2)no1 , please.
Reply text: 9.10

* * *

# assayInfo: Tmax in NOD/SCID mouse tumor xenografted with human MV4-11 cells at 0.5 mg/kg, po measured up to 24 hrs by LC-MS/MS analysis
# Assay type: ADME, organism-based, Neoplasm
propertyMeasured: Tmax (h)
Output spec: scalar in h, unitless text.

Inquiry: Recorded Tmax of CC(C)(C)c1cc(NC(=O)Nc2ccc(C#Cc3ccc(OCCCN4CCOCC4)cc3)cc2)no1 , please.
Reply text: 3

* * *

# assayInfo: Cmax in NOD/SCID mouse tumor xenografted with human MV4-11 cells at 4.5 mg/kg, po measured up to 24 hrs by LC-MS/MS analysis
# Assay type: ADME, organism-based, Neoplasm
propertyMeasured: Cmax (ng/mL)
Output spec: scalar in ng/mL, unitless text.

Inquiry: Recorded Cmax of CC(C)(C)c1cc(NC(=O)Nc2ccc(C#Cc3ccc(OCCCN4CCOCC4)cc3)cc2)no1 , please.
Reply text: 307

* * *

# assayInfo: Clearance in rat plasma at 5 mg/kg, po measured up to 24 hrs by LC-MS/MS analysis
# Assay type: ADME, organism-based
# note: boundary value 7 mL/min/kg maps to not met; CL/F below it maps to met

Worked set:
{"recordSmiles": "CN1CCN(CCCOc2ccc(C#Cc3ccc(NC(=O)Nc4cc(C(C)(C)C)on4)cc3)cc2)CC1", "assignedClass": "not met"}
{"recordSmiles": "CC(C)(C)c1cc(NC(=O)Nc2ccc(C#Cc3ccc(OCCN4CCOCC4)cc3)cc2)no1", "assignedClass": "not met"}
{"recordSmiles": "COc1cc(C#Cc2ccc(NC(=O)Nc3cc(C(C)(C)C)on3)cc2)ccc1OCCCN1CCOCC1", "assignedClass": "not met"}
{"recordSmiles": "CC(C)(C)c1cc(NC(=O)Nc2ccc(C#Cc3ccc(OCCCN4CCOCC4)cc3F)cc2)no1", "assignedClass": "met"}
{"recordSmiles": "CC(C)(C)c1cc(NC(=O)Nc2ccc(C#Cc3ccc(OCCCN4CCOCC4)cc3)cc2)no1", "assignedClass": "met"}

Inquiry: Given CC(C)(C)c1cc(NC(=O)Nc2ccc(C#Cc3ccc(OCCN4C[C@@H]5OCCO[C@@H]5C4)cc3)cc2)no1 , is recorded CL/F strictly lower than 7 mL/min/kg?
Reply text: not met

Inquiry: Given CC(C)(C)c1cc(NC(=O)Nc2ccc(-c3cn4c(n3)sc3cc(OCCN5CCOCC5)ccc34)cc2)no1 , is recorded CL/F strictly lower than 7 mL/min/kg?
Reply text: not met

Inquiry: Given CN1CCN(CCOc2ccc(C#Cc3ccc(NC(=O)Nc4cc(C(C)(C)C)on4)cc3)cc2)CC1 , is recorded CL/F strictly lower than 7 mL/min/kg?
Reply text: not met
